From: paper PMC12298391

protocol_conditions: mouse, in vivo, iv, 5 mg/kg
Where a SMILES comes first, the peptide text is derived from it. The star is where a group is joined. X1 = CN1C(=CC=CC=CC2=[N+](CCCCCC(=O)*)c3ccc4ccccc4c3C2(C)C)C(C)(C)c2c1ccc1ccccc21

- molecule: "CC(C)C[C@H](NC(=O)[C@H](Cc1c[nH]cn1)NC(=O)[C@H](Cc1c[nH]c2ccccc12)NC(=O)[C@@H]1CCCN1C(=O)[C@H](C)NC(=O)CCCCC[N+]1=C(C=CC=CC=C2N(C)c3ccc4ccccc4c3C2(C)C)C(C)(C)c2c1ccc1ccccc21)C(=O)N[C@@H](CO)C(=O)N[C@@H](CO)C(=O)N[C@@H](CCC(N)=O)C(=O)N[C@@H](Cc1ccc(O)cc1)C(=O)N[C@@H](CO)C(=O)N[C@@H](C)C(=O)N[C@H](C(N)=O)[C@@H](C)O [R11A]"
  tissue to tissue ratio at 0.25 h: 8
- molecule: "CC(C)C[C@H](NC(=O)[C@H](Cc1c[nH]cn1)NC(=O)[C@H](Cc1c[nH]c2ccccc12)NC(=O)[C@@H]1CCCN1C(=O)[C@H](C)NC(=O)CCCCC[N+]1=C(C=CC=CC=C2N(C)c3ccc4ccccc4c3C2(C)C)C(C)(C)c2c1ccc1ccccc21)C(=O)N[C@@H](CO)C(=O)N[C@@H](C)C(=O)N[C@@H](CCC(N)=O)C(=O)N[C@@H](Cc1ccc(O)cc1)C(=O)N[C@@H](CO)C(=O)N[C@@H](CCCNC(=N)N)C(=O)N[C@H](C(N)=O)[C@@H](C)O [S7A] (X1-APWHLSAQYSRT-NH2; C-terminus assumed)"
  tissue to tissue ratio at 0.25 h: "~2.5"
